Provenance of the data: patent US7902238B2

compounds and their reported pKi
- Study target: rat TAAR1 (Rattus norvegicus, UniProt Q923Y9)
- Sequence (Q923Y9 whole entry): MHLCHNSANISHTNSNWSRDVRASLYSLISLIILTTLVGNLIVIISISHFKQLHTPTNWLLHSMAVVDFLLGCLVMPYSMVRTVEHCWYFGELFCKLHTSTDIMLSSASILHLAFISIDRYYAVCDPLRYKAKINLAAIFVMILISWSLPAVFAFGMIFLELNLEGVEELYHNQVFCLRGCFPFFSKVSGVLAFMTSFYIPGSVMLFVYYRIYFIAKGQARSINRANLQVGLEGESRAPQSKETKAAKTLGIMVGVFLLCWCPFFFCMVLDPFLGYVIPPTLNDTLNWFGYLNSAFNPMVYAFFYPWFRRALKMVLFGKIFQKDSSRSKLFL
- Assay details: Radioligand binding on membranes of HEK293 cells stably expressing rat TAAR1
pKi: −log10 of the molar value.
Observable: pKi

[
  {
    "Compound": "COc1cc(N(Cc2ccccc2)C[C@H]2COC(N)=N2)ccc1F [Example 42]",
    "Readout value": 8.96
  },
  {
    "Compound": "CCN(C[C@H]1COC(N)=N1)c1ccccc1F [Example 107]",
    "Readout value": 7.83
  },
  {
    "Compound": "NC1=N[C@@H](CN(Cc2ccccc2)c2ccc(F)cc2)CO1 [Example 53]",
    "Readout value": 9.05
  },
  {
    "Compound": "CCN(C[C@H]1COC(N)=N1)c1cc(F)cc(C(F)(F)F)c1 [Example 109]",
    "Readout value": 8.77
  },
  {
    "Compound": "CN(C[C@@H]1COC(N)=N1)c1ccc(Cl)cc1 [Example 125]",
    "Readout value": 8.25
  }
]
